# Tested on: Mus musculus
# protocol-description: Compound was evaluated for […] antagonist activity towards Mouse vas deferens(MVD)
# Type: functional
pIC50: −log10 of the molar value.
readout-kind: pIC50

[
  {
    "chem-smiles": "CN(C(=O)Cc1ccc(Cl)c(Cl)c1)[C@H](CN1CCCC1)c1cccc(N=C=S)c1",
    "numeric-readout": 7.95
  }
]
